Kindly supply the reported pEC50 values for the records listed here.
molecular target: Histamine H3 receptor (Homo sapiens); assay: Agonist activity at human H3 receptor expressed in CHOK1 cells incubated for 10 mins by HTRF assay
Sequence (Q9Y5N1 whole entry): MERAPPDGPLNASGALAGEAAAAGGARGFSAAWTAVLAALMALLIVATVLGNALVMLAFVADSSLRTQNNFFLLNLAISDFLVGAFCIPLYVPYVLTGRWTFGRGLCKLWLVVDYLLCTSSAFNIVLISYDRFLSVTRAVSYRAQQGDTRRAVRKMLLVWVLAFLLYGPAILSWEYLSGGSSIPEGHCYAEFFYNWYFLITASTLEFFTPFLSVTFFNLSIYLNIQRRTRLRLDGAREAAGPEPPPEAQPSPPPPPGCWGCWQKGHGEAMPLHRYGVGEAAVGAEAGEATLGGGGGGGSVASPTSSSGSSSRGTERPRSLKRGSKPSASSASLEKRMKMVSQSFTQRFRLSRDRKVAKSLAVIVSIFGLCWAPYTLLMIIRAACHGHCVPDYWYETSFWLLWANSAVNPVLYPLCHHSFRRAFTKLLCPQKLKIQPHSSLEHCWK
pEC50: −log10 of the molar value.

Before answering, review these 3 worked examples.
Compound | pEC50
Cc1nn(CCOCCOCCNC(=O)C2C(C(=O)O)C(C(=O)O)C2C(=O)O)cc1-c1ccc2cc(CCN3CCC[C@H]3C)ccc2n1 (stereo not given in full) | < 5.52
Cc1nn(CCOCCOCCNC(=O)OC(C)(C)C)cc1-c1ccc2cc(CCN3CCC[C@H]3C)ccc2n1 | < 5.52
Cc1nn(CCOCCOCCNC(=O)CCCCCC2(C)C(/C=C/C=C/C=C3/N(CCCS(=O)(=O)O)c4ccc(S(=O)(=O)O)cc4C3(C)C)=[N+](CCCS(=O)(=O)[O-])c3ccc(S(=O)(=O)O)cc32)cc1-c1ccc2cc(CCN3CCC[C@H]3C)ccc2n1 (stereo not given in full) | 7.06

Each of the following entries comes with a recorded value; kindly state pEC50 for each.
1. Cc1nn(CCOCCOCCN)cc1-c1ccc2cc(CCN3CCC[C@H]3C)ccc2n1
2. Cc1nn(CCOCCOCCNC(=O)CS(=O)(=O)O)cc1-c1ccc2cc(CCN3CCC[C@H]3C)ccc2n1

Result:
1. < 5.52
2. < 5.52

The reported numbers originate from ChEMBL document CHEMBL4311931.
